molecular target: human NaV1.5 (Homo sapiens, UniProt Q14524); assay: Automated patch clamp
RESULT_TYPE: IC50

Looking for the measured IC50 of Cc1ccc(C(=O)Nc2ccnc(S(N)(=O)=O)c2)c(N2CCCC(F)(F)CC2)n1 [MSD199] , can you help?
> 33.6 µM

* * *

target: human NaV1.8 (Homo sapiens)
Sequence (Q9Y5Y9 whole entry): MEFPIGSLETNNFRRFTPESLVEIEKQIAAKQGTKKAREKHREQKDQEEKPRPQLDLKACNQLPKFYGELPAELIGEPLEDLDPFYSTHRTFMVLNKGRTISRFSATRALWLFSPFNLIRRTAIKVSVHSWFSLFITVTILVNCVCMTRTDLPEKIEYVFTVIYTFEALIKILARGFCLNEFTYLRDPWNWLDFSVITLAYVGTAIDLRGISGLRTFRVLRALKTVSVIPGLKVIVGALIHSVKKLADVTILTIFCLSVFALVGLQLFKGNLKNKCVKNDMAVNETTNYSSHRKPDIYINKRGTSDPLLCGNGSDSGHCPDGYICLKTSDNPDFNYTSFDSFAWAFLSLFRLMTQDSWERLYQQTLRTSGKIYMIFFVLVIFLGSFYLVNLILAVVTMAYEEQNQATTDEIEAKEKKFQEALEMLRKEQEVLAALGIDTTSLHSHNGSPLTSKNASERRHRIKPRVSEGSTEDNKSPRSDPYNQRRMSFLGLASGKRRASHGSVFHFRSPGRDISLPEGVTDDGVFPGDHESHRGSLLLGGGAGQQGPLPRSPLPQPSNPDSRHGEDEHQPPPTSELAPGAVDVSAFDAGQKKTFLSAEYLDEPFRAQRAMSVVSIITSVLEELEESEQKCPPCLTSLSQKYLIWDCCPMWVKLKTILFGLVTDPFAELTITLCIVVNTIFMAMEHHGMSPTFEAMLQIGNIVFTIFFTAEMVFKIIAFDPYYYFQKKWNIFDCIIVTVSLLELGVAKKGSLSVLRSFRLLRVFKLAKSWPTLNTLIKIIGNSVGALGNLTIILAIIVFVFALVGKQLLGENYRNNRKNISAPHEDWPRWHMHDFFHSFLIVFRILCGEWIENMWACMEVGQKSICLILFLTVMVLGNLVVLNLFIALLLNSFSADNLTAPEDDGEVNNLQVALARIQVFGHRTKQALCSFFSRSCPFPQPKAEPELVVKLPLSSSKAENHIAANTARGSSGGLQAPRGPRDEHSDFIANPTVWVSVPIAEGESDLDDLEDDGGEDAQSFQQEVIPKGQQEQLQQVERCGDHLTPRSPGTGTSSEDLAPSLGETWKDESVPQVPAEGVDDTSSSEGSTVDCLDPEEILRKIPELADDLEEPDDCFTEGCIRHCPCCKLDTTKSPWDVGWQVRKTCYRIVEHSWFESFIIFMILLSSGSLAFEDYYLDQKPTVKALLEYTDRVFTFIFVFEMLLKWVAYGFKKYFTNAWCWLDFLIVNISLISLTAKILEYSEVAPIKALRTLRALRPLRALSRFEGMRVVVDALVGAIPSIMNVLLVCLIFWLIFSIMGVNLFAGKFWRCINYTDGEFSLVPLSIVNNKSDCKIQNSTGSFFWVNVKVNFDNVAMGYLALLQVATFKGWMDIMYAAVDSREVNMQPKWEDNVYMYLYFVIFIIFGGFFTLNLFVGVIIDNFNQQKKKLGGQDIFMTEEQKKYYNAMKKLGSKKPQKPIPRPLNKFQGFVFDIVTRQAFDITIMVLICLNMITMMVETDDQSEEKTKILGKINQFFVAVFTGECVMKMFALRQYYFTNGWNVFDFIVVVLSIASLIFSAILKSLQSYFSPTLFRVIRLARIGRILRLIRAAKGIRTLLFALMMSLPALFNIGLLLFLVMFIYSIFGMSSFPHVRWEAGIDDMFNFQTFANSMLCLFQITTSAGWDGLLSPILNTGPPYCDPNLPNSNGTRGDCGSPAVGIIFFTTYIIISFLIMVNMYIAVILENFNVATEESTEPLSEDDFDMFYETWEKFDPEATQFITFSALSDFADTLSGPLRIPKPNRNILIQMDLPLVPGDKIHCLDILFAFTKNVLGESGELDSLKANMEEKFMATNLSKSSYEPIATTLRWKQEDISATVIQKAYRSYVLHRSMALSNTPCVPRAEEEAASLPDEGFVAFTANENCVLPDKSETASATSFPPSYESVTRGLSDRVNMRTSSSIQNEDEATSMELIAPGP
RESULT_TYPE: IC50

Provide value of IC50 for this record tested with human NaV1.8 (Homo sapiens): Cc1ccc(C(=O)Nc2ccnc(S(N)(=O)=O)c2)c(N2CCCC(F)(F)CC2)n1
5.6 nM

* * *

test: Rat plasma protein binding; format: in vitro ADME
RESULT_TYPE: fraction unbound
Answers are plain numbers.

Please give the measured fraction unbound for this compound: Cc1ccc(C(=O)Nc2ccnc(S(N)(=O)=O)c2)c(N2CCCC(F)(F)CC2)n1
0.15

* * *

target: Chimera 1: NaV1.5(1–711) – NaV1.8(660–890) – NaV1.5(940–2015) (Homo sapiens, UniProt Q14524+Q9Y5Y9); test: QPatch II sodium currents of chimeric NaV channel in FS-293 HEK cells
RESULT_TYPE: IC50 (nM)
Numbers only, in nM.

Can you look up the measured IC50 of Cc1ccc(C(=O)Nc2ccnc(S(N)(=O)=O)c2)c(N2CCCC(F)(F)CC2)n1 for me?
1.1

* * *

target: Chimera A: NaV1.5(1–770) – NaV1.8(719–751) – NaV1.5(804–2015) (Homo sapiens, UniProt Q14524+Q9Y5Y9); assay: QPatch II sodium currents of chimeric NaV channel in FS-293 HEK cells
Sequence (Q14524 1-770 limits assumed, change not shown): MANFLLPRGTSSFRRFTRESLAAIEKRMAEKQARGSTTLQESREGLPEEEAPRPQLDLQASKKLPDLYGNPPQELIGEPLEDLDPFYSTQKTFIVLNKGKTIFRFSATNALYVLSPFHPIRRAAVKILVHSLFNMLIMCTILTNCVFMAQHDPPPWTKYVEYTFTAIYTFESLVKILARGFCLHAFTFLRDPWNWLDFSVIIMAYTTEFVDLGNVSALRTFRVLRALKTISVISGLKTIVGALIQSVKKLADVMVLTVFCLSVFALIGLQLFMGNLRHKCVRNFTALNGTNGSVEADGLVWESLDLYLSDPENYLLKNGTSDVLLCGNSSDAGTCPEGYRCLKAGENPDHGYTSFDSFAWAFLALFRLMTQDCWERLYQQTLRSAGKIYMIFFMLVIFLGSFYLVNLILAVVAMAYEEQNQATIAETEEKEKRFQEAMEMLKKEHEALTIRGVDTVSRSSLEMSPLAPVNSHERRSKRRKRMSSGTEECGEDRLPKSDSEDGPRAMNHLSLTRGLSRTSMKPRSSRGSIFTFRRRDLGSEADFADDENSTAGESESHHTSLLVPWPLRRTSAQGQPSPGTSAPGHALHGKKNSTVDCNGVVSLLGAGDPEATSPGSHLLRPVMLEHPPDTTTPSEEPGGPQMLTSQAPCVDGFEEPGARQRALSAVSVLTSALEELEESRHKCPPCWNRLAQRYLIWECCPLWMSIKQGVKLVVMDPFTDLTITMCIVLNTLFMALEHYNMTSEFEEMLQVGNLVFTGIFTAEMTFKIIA
Sequence (Q9Y5Y9 719-751 limits assumed, change not shown): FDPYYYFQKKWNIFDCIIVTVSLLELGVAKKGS
Sequence (Q14524 804-2015 isoform Q14524-2 limits assumed): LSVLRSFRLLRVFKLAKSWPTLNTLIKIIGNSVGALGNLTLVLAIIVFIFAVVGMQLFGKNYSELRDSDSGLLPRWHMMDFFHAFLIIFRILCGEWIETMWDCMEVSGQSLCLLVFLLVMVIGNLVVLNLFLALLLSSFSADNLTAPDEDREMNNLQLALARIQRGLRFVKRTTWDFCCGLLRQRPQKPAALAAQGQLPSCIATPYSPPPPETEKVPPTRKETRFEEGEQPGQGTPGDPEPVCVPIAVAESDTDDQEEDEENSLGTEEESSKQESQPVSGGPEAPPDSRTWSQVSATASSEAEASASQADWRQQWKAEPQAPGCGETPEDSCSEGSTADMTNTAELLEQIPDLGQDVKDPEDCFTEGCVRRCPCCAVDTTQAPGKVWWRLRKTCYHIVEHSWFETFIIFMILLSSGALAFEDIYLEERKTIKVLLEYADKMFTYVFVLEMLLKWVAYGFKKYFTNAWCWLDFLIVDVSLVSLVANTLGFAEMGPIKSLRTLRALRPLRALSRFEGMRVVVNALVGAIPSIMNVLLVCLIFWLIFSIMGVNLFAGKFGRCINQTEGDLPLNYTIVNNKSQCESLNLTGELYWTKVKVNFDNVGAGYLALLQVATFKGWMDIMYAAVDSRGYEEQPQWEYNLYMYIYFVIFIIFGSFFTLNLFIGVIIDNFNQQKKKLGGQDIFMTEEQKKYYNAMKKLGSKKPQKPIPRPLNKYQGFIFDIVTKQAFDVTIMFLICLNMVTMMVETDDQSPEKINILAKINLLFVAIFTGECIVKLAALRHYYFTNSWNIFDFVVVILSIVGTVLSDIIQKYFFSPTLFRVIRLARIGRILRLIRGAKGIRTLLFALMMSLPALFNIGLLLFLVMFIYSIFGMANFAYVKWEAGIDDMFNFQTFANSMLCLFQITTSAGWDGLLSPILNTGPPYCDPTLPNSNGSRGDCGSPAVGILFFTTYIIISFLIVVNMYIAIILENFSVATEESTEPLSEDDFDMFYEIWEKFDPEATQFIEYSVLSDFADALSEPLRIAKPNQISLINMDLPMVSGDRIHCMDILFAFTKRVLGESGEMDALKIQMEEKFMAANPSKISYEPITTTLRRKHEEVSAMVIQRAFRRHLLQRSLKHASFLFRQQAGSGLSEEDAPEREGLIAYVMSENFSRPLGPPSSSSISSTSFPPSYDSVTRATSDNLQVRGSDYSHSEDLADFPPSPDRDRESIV
RESULT_TYPE: pIC50
Answers are plain numbers, as −log10 of the molar value.

Requested field: pIC50. Item: Cc1ccc(C(=O)Nc2ccnc(S(N)(=O)=O)c2)c(N2CCCC(F)(F)CC2)n1 [MSD199]
8.07
